What activity coefficient was measured for each of the following?
Assay: activity coefficient (dimensionless); of the first substance listed, at infinite dilution; xn = mol fraction of the nth substance listed
Details: 358.15 K; 101.33 kPa; Liquid; Chromatography; x1 = 0
// print number alone

Value lookup for activity coefficient; key = C1CCCCC1 [cyclohexane] + CCCCCCCCCCCCn1cc[n+](C)c1.O=S(=O)([N-]S(=O)(=O)C(F)(F)F)C(F)(F)F
2.19

Value lookup for activity coefficient; key = Cc1ccccc1C [1,2-dimethylbenzene] + CCCCCCCCCCCCn1cc[n+](C)c1.O=S(=O)([N-]S(=O)(=O)C(F)(F)F)C(F)(F)F
0.968

Value lookup for activity coefficient; key = CCC(C)O (stereo unspecified) [butan-2-ol] + CCCCCCCCCCCCn1cc[n+](C)c1.O=S(=O)([N-]S(=O)(=O)C(F)(F)F)C(F)(F)F
1.09

Value lookup for activity coefficient; key = C=C(C)c1ccccc1 [(1-methylethenyl)benzene] + CCCCCCCCCCCCn1cc[n+](C)c1.O=S(=O)([N-]S(=O)(=O)C(F)(F)F)C(F)(F)F
1

Value lookup for activity coefficient; key = CCC(C)CC [3-methylpentane] + CCCCCCCCCCCCn1cc[n+](C)c1.O=S(=O)([N-]S(=O)(=O)C(F)(F)F)C(F)(F)F
2.99

Value lookup for activity coefficient; key = CC(C)=O [acetone] + CCCCCCCCCCCCn1cc[n+](C)c1.O=S(=O)([N-]S(=O)(=O)C(F)(F)F)C(F)(F)F
0.417

Attribution: the NIST ThermoML archive (doi:10.1016/j.jct.2016.08.008)
